Collected pKi for Muscarinic acetylcholine receptor M3 (Rattus norvegicus) across several studies; compounds listed below.
pKi: −log10 of the molar value.
endpoint_name: pKi

1) COc1ccccc1CNCCCCCCNCCCCCCCCNCCCCCCNCc1ccccc1OC :: 6.00
2) CC(C)N(CC[C@H](c1ccccc1)c1cc(CCNC(=O)CCCCCNC(=O)COc2ccc(/C=C/C3=[N+]4C(=Cc5ccc(-c6cccs6)n5[B-]4(F)F)C=C3)cc2)ccc1O)C(C)C :: 7.99
3) CN(CCCCCCCCN(C)CCCCCCN(CC(=O)N1c2ccccc2C(=O)Nc2cccnc21)CC(=O)N1c2ccccc2C(=O)Nc2cccnc21)CCCCCCN(CC(=O)N1c2ccccc2C(=O)Nc2cccnc21)CC(=O)N1c2ccccc2C(=O)Nc2cccnc21.O=C(O)C(=O)O.O=C(O)C(=O)O.O=C(O)C(=O)O.O=C(O)C(=O)O :: 6.81
4) CN(CCCCCCCCN(C)CCCCCCNCC(=O)N1c2ccccc2C(=O)Nc2cccnc21)CCCCCCNCC(=O)N1c2ccccc2C(=O)Nc2cccnc21 :: 6.76
5) CN(CCCCCCN)CCCCCCCCN(C)CCCCCCNCCCC(=O)N1c2ccccc2C(=O)Nc2cccnc21 :: 8.52
6) COc1ccccc1CN(CCCCCCN(C)CCCCCCCCN(C)CCCCCCN(CC(=O)N1c2ccccc2C(=O)Nc2cccnc21)Cc1ccccc1OC)CC(=O)N1c2ccccc2C(=O)Nc2cccnc21.O=C(O)C(=O)O.O=C(O)C(=O)O.O=C(O)C(=O)O.O=C(O)C(=O)O :: 6.60
7) O=C(Nc1ccccc1-c1ccccc1)OC1CCNCC1 :: 7.57
8) CN(CCCCCCCCN(C)CCCCCCN(CC(=O)N1c2ccccc2NC(=O)c2cccnc21)CC(=O)N1c2ccccc2NC(=O)c2cccnc21)CCCCCCN(CC(=O)N1c2ccccc2NC(=O)c2cccnc21)CC(=O)N1c2ccccc2NC(=O)c2cccnc21 :: 5.60
9) CCN(CC)CCCCC1CCN(CC(=O)N2c3ccccc3C(=O)Nc3cccnc32)CC1 :: 6.60
10) CN(CCCCCCCCN(C)C(=O)CCCCCNCCCCC(=O)N1c2ccccc2C(=O)Nc2cccnc21)C(=O)CCCCCN :: 7.15
11) CN(CCCCCCCCN(C)CCCCCCN(CC(=O)N1c2ccccc2NC(=O)c2ccccc21)CC(=O)N1c2ccccc2NC(=O)c2ccccc21)CCCCCCNCC(=O)N1c2ccccc2NC(=O)c2ccccc21 :: 6.96
12) CN(CCCCCCN)CCCCCCCCN(C)CCCCCCN(CC(=O)N1c2ccccc2C(=O)Nc2cccnc21)CC(=O)N1c2ccccc2C(=O)Nc2cccnc21.O=C(O)C(=O)O.O=C(O)C(=O)O.O=C(O)C(=O)O.O=C(O)C(=O)O :: 5.17
